Numbers sourced from patent US11332472B2.

Measured log10 IC50 of individual entries
# measured-on: USP7 (Homo sapiens, UniProt Q93009, C315A)
# Construct: 0.25 nM His-His-USP7 (aa208-560, [C315A]) was incubated with compound; His-His (N)
# Sequence (Q93009 208-560 C315A): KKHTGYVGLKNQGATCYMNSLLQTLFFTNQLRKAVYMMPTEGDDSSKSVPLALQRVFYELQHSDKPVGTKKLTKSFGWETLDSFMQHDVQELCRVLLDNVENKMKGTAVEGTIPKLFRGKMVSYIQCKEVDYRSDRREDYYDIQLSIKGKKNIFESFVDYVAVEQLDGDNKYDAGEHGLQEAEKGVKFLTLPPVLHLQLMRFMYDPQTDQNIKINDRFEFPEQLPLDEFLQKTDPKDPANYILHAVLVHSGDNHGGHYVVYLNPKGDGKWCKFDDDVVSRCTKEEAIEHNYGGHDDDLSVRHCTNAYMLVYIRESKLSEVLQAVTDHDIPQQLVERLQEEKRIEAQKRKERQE
# run-description: Inhibition of USP7 by Fluorescence Intensity (FLINT) readings, Ubiquitin-Rhodamine-110 substrate
# Assay type: biochemical
# run-conditions: 0.25 nM His-His-USP7 (aa208-560, [C315A]); compound 60 minutes at 30° C.; 500 nM Ubiquitin-Rhodamine substrate; 11-point curves
measured-property: log10 IC50 (log10 of the value in nM)

# compound, measured-property, observed-measurement
measured = [
    ("COc1ccc(-n2ccc3c(=O)n(CC4(O)CCN(C(=O)C5C(C)=CCCC5c5cccs5)CC4)cnc32)cc1 (single isomer, unassigned)", "log10 IC50", 2.86),
    ("COc1ccc(-n2ccc3c(=O)n(CC4(O)CCN(C(=O)C5CCCCC5c5nccn5C)CC4)cnc32)cc1 (single isomer, unassigned)", "log10 IC50", 4.02),
    ("COc1ccc(-n2ccc3c(=O)n(CC4(O)CCN(C(=O)[C@@H]5C(C)=CCC[C@H]5c5ccsc5)CC4)cnc32)cc1 (single isomer, unassigned) [Example 61]", "log10 IC50", 1.86),
    ("O=C([C@@H]1CCC(F)(F)C[C@H]1c1ccccc1)N1CCC(O)(Cn2cnc3c(ccn3-c3ccccc3)c2=O)CC1 (single isomer, unassigned) [Example 35]", "log10 IC50", 4.13),
    ("O=C([C@@H]1CCC(F)(F)C[C@H]1c1ccco1)N1CCC(O)(Cn2cnc3c(-c4ccccc4)scc3c2=O)CC1 (single isomer, unassigned)", "log10 IC50", 2.10),
    ("O=C(Cc1c[nH]c2ccc(O)cc12)Nc1ccc2ncn(CC3(O)CCN(C(=O)C4CCCCC4c4ccccc4)CC3)c(=O)c2n1 (centres unmarked)", "log10 IC50", 1.18),
    ("COc1ccc(-n2ccc3c(=O)n(CC4(O)CCN(C(=O)[C@@H]5CCCO[C@H]5c5ccccc5)CC4)cnc32)cc1 (relative stereo) [Example 24]", "log10 IC50", 2.34),
    ("O=C([C@@H]1CCCC[C@H]1c1ccc(F)cc1)N1CCC(O)(Cn2cnc3c(ccn3-c3ccccc3)c2=O)CC1 (single isomer, unassigned)", "log10 IC50", 0.99),
    ("COc1ccc(-n2ccc3c(=O)n(CC4(O)CCN(C(=O)[C@@H]5CCCC[C@H]5n5cccc5)CC4)cnc32)cc1 (single isomer, unassigned) [Example 17]", "log10 IC50", 1.53),
    ("COc1ccc(-n2ccc3c(=O)n(CC4(O)CCN(C(=O)[C@@H]5CCC(F)(F)C[C@H]5c5ccoc5)CC4)cnc32)cc1 (single isomer, unassigned) [Example 75]", "log10 IC50", 1.77),
    ("O=C(C1CCCC(O)C1c1ccccc1)N1CCC(O)(Cn2cnc3c(ccn3-c3ccccc3)c2=O)CC1 (single isomer, unassigned) [Example 55]", "log10 IC50", 2.05),
]

* * *

# measured-on: USP7 (Homo sapiens, UniProt Q93009, C315A)
# Construct: 0.25 nM His-His-USP7 (aa208-560, [C315A]) was incubated with compound; His-His (N)
# run-description: Inhibition of USP7 by Fluorescence Intensity (FLINT) readings, Ubiquitin-Rhodamine-110 substrate
# Type: biochemical
# run-conditions: 0.25 nM His-His-USP7 (aa208-560, [C315A]); compound 60 minutes at 30° C.; 500 nM Ubiquitin-Rhodamine substrate; 11-point curves
The label is yes (1) for IC50 below 600 nM and no (0) for IC50 equal to or exceeding 600 nM.

# compound, measured-on, class-assignment
rows = [
    ("COc1ccc(-n2ccc3c(=O)n(CC4(O)CCN(C(=O)[C@@H]5C(C)=CCC[C@H]5c5ccsc5)CC4)cnc32)cc1 (single isomer, unassigned) [Example 62]", "USP7 (Homo sapiens, UniProt Q93009, C315A)", "no (0)"),
    ("NC(=O)CSCCC(=O)Nc1ccc2ncn(CC3(O)CCN(C(=O)[C@@H]4CCCC[C@H]4c4ccccc4)CC3)c(=O)c2n1 (relative stereo)", "USP7 (Homo sapiens, UniProt Q93009, C315A)", "yes (1)"),
    ("CCn1cc([C@@H]2CC(F)(F)CC[C@H]2C(=O)N2CCC(O)(Cn3cnc4c(-c5ccccc5)scc4c3=O)CC2)cn1 (single isomer, unassigned)", "USP7 (Homo sapiens, UniProt Q93009, C315A)", "no (0)"),
    ("O=C(C1CCCC(O)C1c1ccccc1)N1CCC(O)(Cn2cnc3c(ccn3-c3ccccc3)c2=O)CC1 (single isomer, unassigned) [Example 56]", "USP7 (Homo sapiens, UniProt Q93009, C315A)", "no (0)"),
]

* * *

Measured IC50 of individual entries
# measured-on: USP7 (Homo sapiens, UniProt Q93009, C315A)
# Construct: 0.25 nM His-His-USP7 (aa208-560, [C315A]) was incubated with compound; His-His (N)
# run-description: Inhibition of USP7 by Fluorescence Intensity (FLINT) readings, Ubiquitin-Rhodamine-110 substrate
# Type: biochemical
# run-conditions: 0.25 nM His-His-USP7 (aa208-560, [C315A]); compound 60 minutes at 30° C.; 500 nM Ubiquitin-Rhodamine substrate; 11-point curves

# molecule, value-unit, IC50
records = [
    ("O=C([C@@H]1CCC(F)(F)C[C@H]1c1cccs1)N1CCC(O)(Cn2cnc3c(ccn3-c3ccccc3)c2=O)CC1 (relative stereo)", "nM", 162),
    ("COc1ccc(-n2ccc3c(=O)n(CC4(O)CCN(C(=O)[C@@H]5CCCC[C@H]5n5cccc5)CC4)cnc32)cc1 (single isomer, unassigned) [Example 16]", "nM", 2970),
    ("O=C([C@@H]1CCO[C@H]1c1ccccc1)N1CCC(O)(Cn2cnc3c(ccn3-c3ccccc3)c2=O)CC1 (relative stereo)", "nM", 685),
    ("Cn1ccnc1[C@@H]1CCCC[C@H]1C(=O)N1CCC(O)(Cn2cnc3c(ccn3-c3ccccc3)c2=O)CC1 (single isomer, unassigned) [Example 58]", "nM", 20300),
    ("O=C([C@@H]1CC(F)(F)CC[C@H]1c1ccccc1)N1CCC(O)(Cn2cnc3c(-c4ccccc4)scc3c2=O)CC1 (single isomer, unassigned) [Example 79]", "nM", 60.1),
    ("O=C([C@@H]1CCCC[C@H]1c1ccsc1)N1CCC(O)(Cn2cnc3cccnc3c2=O)CC1 (relative stereo)", "nM", 916),
    ("O=C(Nc1ccc2ncn(CC3(O)CCN(C(=O)[C@@H]4CCCC[C@H]4c4ccccc4)CC3)c(=O)c2n1)C1CCOC1 (relative stereo)", "nM", 99.6),
]

* * *

# measured-on: USP7 (Homo sapiens, UniProt Q93009, C315A)
# Construct: 0.25 nM His-His-USP7 (aa208-560, [C315A]) was incubated with compound; His-His (N)
# run-description: Inhibition of USP7 by Fluorescence Intensity (FLINT) readings, Ubiquitin-Rhodamine-110 substrate
# Format: biochemical
# run-conditions: 0.25 nM His-His-USP7 (aa208-560, [C315A]); compound 60 minutes at 30° C.; 500 nM Ubiquitin-Rhodamine substrate; 11-point curves
Measured log10(IC50) of individual entries
measured-property: log10(IC50) (log10 of the value in nM)

# compound, log10(IC50)
measured = [
    ("O=C([C@@H]1CCCC(F)(F)[C@H]1c1ccccc1)N1CCC(O)(Cn2cnc3c(ccn3-c3ccccc3)c2=O)CC1 (relative stereo) [Example 51]", 4.00),
    ("O=C([C@@H]1CCCC[C@H]1n1cccc1)N1CCC(O)(Cn2cnc3c(ccn3-c3ccccc3)c2=O)CC1 (single isomer, unassigned) [Example 14]", 1.43),
    ("COc1ccc(-n2ccc3c(=O)n(CC4(O)CCN(C(=O)[C@@H]5C(C)=CCC[C@H]5c5cccs5)CC4)cnc32)cc1 (single isomer, unassigned) [Example 59]", 1.81),
    ("COc1ccc(-n2ccc3c(=O)n(CC4(O)CCN(C(=O)[C@@H]5CCCO[C@H]5c5ccccc5)CC4)cnc32)cc1 (single isomer, unassigned) [Example 45]", 1.93),
    ("O=C([C@@H]1CCCC[C@H]1c1ccoc1)N1CCC(O)(Cn2cnc3cccnc3c2=O)CC1 (relative stereo) [Example 4]", 3.66),
    ("O=C([C@@H]1CCCC[C@H]1c1ccccc1)N1CCC(O)(Cn2cnc3cccnc3c2=O)CC1 (relative stereo) [Example 93]", 2.23),
    ("O=C([C@@H]1CCC(F)(F)C[C@H]1c1cscn1)N1CCC(O)(Cn2cnc3c(-c4ccccc4)scc3c2=O)CC1 (single isomer, unassigned) [Example 83]", 2.80),
    ("COc1ccc(-n2ccc3c(=O)n(CC4(O)CCN(C(=O)[C@@H]5CC(F)(F)CC[C@H]5c5ccccc5)CC4)cnc32)cc1 (single isomer, unassigned) [Example 29]", 2.79),
]
